test: Tmax in Sprague-Dawley rat at 30 mg/kg, po and measured upto 12 hrs by LC-MS analysis; format: ADME, organism-based; details: in vivo

Item smiles: Cc1c(Cl)cccc1Nc1ccccc1C(=O)Nc1ccc(N2CCNCC2)cc1
Tmax [min]: 16.8

###

The following compounds are listed with their measured inhibition values.
biological target: UniProt:P11387; test: Inhibition of topoisomerase 1 (unknown origin) assessed as relaxation of supercoiled plasmid pBR322 DNA at 10 uM incubated for 45 mins by ethidium bromide staining based agarose gel electrophoresis
Sequence (P11387 whole entry): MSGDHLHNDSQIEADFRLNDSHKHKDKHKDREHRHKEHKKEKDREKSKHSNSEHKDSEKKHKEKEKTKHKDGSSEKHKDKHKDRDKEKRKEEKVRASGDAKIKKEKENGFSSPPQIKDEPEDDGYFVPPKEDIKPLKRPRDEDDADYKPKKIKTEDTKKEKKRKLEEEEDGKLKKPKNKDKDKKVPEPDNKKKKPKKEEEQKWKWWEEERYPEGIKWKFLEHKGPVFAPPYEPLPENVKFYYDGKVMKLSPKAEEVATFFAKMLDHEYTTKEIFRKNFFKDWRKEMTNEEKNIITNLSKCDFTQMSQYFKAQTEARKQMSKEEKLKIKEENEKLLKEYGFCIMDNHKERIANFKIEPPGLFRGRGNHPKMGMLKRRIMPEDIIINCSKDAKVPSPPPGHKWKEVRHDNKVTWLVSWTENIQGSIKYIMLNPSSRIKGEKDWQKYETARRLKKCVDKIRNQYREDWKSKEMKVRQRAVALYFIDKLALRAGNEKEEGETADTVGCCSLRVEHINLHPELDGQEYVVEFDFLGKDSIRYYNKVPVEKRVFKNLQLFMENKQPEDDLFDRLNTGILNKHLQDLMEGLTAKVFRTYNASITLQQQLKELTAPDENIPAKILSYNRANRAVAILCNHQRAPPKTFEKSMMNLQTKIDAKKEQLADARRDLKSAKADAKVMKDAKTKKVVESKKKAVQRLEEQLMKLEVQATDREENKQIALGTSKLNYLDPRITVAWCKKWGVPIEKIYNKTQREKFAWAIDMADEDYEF

Item smiles: Cc1c(Cl)cccc1Nc1ccccc1C(=O)Nc1ccc(OCCN)cc1
Target system: UniProt:P11387
inhibition, %: 63.8
//
Item smiles: CCCN1CCN(c2ccc(NC(=O)c3ccccc3Nc3cccc(Cl)c3C)cc2)CC1
Target system: UniProt:P11387
inhibition, %: 63.1
//
Item smiles: CCN1CCN(c2ccc(NC(=O)c3ccccc3Nc3cccc(Cl)c3C)cc2)CC1
Target system: UniProt:P11387
inhibition, %: 71.9
//
Item smiles: COCC(=O)Oc1ccc(NC(=O)c2ccccc2Nc2cccc(Cl)c2C)cc1
Target system: UniProt:P11387
inhibition, %: 16.6
//
Item smiles: Cc1c(Cl)cccc1Nc1ccccc1C(=O)Nc1ccc(N2CCN(C(=O)OC(C)(C)C)CC2)cc1
Target system: UniProt:P11387
inhibition, %: 20.4
//
Item smiles: CCCCN1CCN(c2ccc(NC(=O)c3ccccc3Nc3cccc(Cl)c3C)cc2)CC1
Target system: UniProt:P11387
inhibition, %: 53.2
//
Item smiles: Cc1c(Cl)cccc1Nc1ccccc1C(=O)Nc1ccc(C(N)=O)cc1
Target system: UniProt:P11387
inhibition, %: 19.6
//
Item smiles: Cc1c(Cl)cccc1Nc1ccccc1C(=O)Nc1ccc(OC(=O)CO)cc1
Target system: UniProt:P11387
inhibition, %: 45.1
//
Item smiles: Cc1c(Cl)cccc1Nc1ccccc1C(=O)Nc1ccc(OCCO)cc1
Target system: UniProt:P11387
inhibition, %: 46.2
//
Item smiles: CC(=O)N1CCN(c2ccc(NC(=O)c3ccccc3Nc3cccc(Cl)c3C)cc2)CC1
Target system: UniProt:P11387
inhibition, %: 29
//
Item smiles: Cc1c(Cl)cccc1Nc1ccccc1C(=O)Nc1ccc(N2CCN(S(C)(=O)=O)CC2)cc1
Target system: UniProt:P11387
inhibition, %: 19.7
//
Item smiles: Cc1c(Cl)cccc1Nc1ccccc1C(=O)Nc1ccc(N2CCN(c3ccccc3)CC2)cc1
Target system: UniProt:P11387
inhibition, %: 13.9
//
Item smiles: Cc1c(Cl)cccc1Nc1ccccc1C(=O)Nc1ccc(N2CCNCC2)cc1
Target system: UniProt:P11387
inhibition, %: 69
//
Item smiles: Cc1c(Cl)cccc1Nc1ccccc1C(=O)Nc1ccc(S(N)(=O)=O)cc1
Target system: UniProt:P11387
inhibition, %: 24.4
//
Item smiles: Cc1c(Cl)cccc1Nc1ccccc1C(=O)Nc1ccc(N2CCN(C)CC2)cc1
Target system: UniProt:P11387
inhibition, %: 67.8
//
Item smiles: Cc1c(Cl)cccc1Nc1ccccc1C(=O)Nc1ccc(NCCO)cc1
Target system: UniProt:P11387
inhibition, %: 40.9
//
Item smiles: COCCOc1ccc(NC(=O)c2ccccc2Nc2cccc(Cl)c2C)cc1
Target system: UniProt:P11387
inhibition, %: 29.3
//
Item smiles: Cc1c(Cl)cccc1Nc1ccccc1C(=O)Nc1ccc(OCCNC(=O)OC(C)(C)C)cc1
Target system: UniProt:P11387
inhibition, %: 18.2
//
Item smiles: Cc1c(Cl)cccc1Nc1ccccc1C(=O)Nc1ccc(N2CCN(C(C)C)CC2)cc1
Target system: UniProt:P11387
inhibition, %: 54.6
//
Item smiles: Cc1c(Cl)cccc1Nc1ccccc1C(=O)Nc1ccc(N2CCOCC2)cc1
Target system: UniProt:P11387
inhibition, %: 14.5
